Reported self-cleavage values follow for various variants
B1: LINE1-mini (parent)
chain: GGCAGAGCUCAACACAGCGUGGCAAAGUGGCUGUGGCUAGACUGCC

Variants of: B1
Assay: self-cleavage, relative activity (ratio to wild type); higher = more cleavage; in vitro, sequencing; the parent is a self-cleaving ribozyme
Reply briefly: the number, and no unit.

C13U A39C ... 0.13
A12C C23G ... 0.02
C3G G36C ... 0.66

*Q* Please report the recorded self-cleavage for A14G G17A .
*A* 0.17

*Q* # query: self-cleavage of entry A25C C37A
*A* 0.11

*Q* Endpoint output: self-cleavage of G1U U9C . Value?
*A* 0.02

*Q* Value lookup for self-cleavage; key = G7C G21C
*A* 0.08

*Q* For G1A C31A , what is its reported self-cleavage?
*A* 0.12

Attribution: the RNAGym collection of RNA variant scans (doi:10.7554/elife.90254)
